Reference source for all entries: PubChem BioAssay AID504332

target: Histone-lysine N-methyltransferase EHMT2 (Homo sapiens) (UniProt Q96KQ7); test: qHTS Assay for Inhibitors of Histone Lysine Methyltransferase G9a; details: G9a H3K9 monomethylation, AlphaScreen, 2 h; series mostly up to 59 µM; note: nearly all actives have a fitted effect of over 75% in size
Sequence (Q96KQ7 913-1193 limits assumed): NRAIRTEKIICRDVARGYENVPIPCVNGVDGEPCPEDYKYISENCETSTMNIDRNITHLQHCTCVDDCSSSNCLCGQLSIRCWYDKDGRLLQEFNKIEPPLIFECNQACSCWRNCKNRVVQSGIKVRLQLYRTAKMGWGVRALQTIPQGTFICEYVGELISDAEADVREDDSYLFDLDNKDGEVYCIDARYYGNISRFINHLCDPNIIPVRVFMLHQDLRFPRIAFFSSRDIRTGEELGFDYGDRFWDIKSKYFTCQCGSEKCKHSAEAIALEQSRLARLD
Screen size: about 350,000 compounds; about 31,000 (8.9%) were called active. Roughly 15% stayed inconclusive and do not appear here. Calls come from the whole dose curve; as a rule, active = well fitted inhibition curve with a large enough effect; inconclusive = small, poorly fitted or top-dose-only effect; inactive = no such curve, though single readings can be large or run the other way. This is one part of a sample in which actives are shown more often than they occur.
Outcome field: choose from T (active), F (inactive)

A selection of reference data follows.
O=C(c1cccs1)N1CCN(C(=O)N2CCOCC2)CC1	F
O=C(CSC1=NS(=O)(=O)c2cc(F)ccc2N1)Nc1ccccc1F	F
COc1ccc(CNC(=O)CSc2n[nH]c(N)n2)cc1OC	T
COC(=O)c1ccc(C)c(NC(=O)C2CC(=O)N(C3CCCC(C)C3C)C2)c1 (configuration not stated)	F
COc1ccc(N2CCN(C(=O)c3cccs3)CC2)cc1	T
Cn1c(=O)c2c(nc(Oc3ccc(C#N)cc3)n2Cc2ccc(Cl)cc2Cl)n(C)c1=O	F
Cc1ccc(NC(=O)CN2c3ccccc3S(=O)(=O)c3ccccc32)cc1F	F
COC(=O)c1cc(NC(=O)c2cnc(SC)nc2-c2ccccc2)cc(C(=O)OC)c1	F
CCN(CC)c1ccc([N+](=O)[O-])cc1C(=O)O	T
CCOCCCNC(=O)c1ccc2nc(CCc3ccccc3)oc2c1	F

Now look at this entry.
Request: // param item: CCSc1nc(C)c(CCOc2cccc(C)c2)c(=O)[nH]1 ; yields the recorded call
Response: F
